Please provide measured pIC50 for the entries that follow.
target desc: Transcription factor Jun (Homo sapiens, UniProt P05412)
Sequence (P05412 whole entry): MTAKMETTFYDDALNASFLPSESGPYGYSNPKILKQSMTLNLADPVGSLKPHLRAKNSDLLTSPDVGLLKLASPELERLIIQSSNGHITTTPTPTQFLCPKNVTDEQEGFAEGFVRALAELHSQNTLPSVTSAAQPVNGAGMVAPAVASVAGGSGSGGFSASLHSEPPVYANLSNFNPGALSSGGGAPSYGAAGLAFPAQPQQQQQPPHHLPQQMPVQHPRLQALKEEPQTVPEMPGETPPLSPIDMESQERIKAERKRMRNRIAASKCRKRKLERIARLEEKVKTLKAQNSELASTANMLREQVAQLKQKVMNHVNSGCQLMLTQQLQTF
measurement notes: Inhibition of UVB-induced AP-1 activation (unknown origin) by cell-based assay
Numbers only, as −log10 of the molar value.

[
  {
    "smiles structure": "COC(=O)C1=CO[C@@H](O[C@@H]2O[C@H](CO)[C@@H](O)[C@H](O)[C@H]2O)[C@H]2[C@H]1C(C)=C[C@@]2(O)C(=O)O/C=C(\\C(=O)O)c1ccc(O)c(OC)c1",
    "pIC50": 4.16
  }
]

Now, please, on to the next compound.
Field pIC50 (entry `COC(=O)C1=CO[C@@H](O[C@@H]2O[C@H](CO)[C@@H](O)[C@H](O)[C@H]2O)[C@H]2[C@@H]1[C@@H]1O[C@@H]1[C@]2(O)C(=O)O/C=C(\C(=O)O)c1ccc(O)c(OC)c1` ) reads 4.54

====

target desc: Transcription factor Jun (Homo sapiens)
measurement notes: Inhibition of AP-1-mediated transcriptional activation in human Jurkat cells by luciferase reporter gene assay
Assay type: cell-based
parameter: IC50

Consider the following illustrative entries.
[
  {
    "smiles structure": "CCOC(=O)c1cnc(NN2C(=O)C=C(C)C2=O)nc1CC",
    "IC50": "400 nM"
  },
  {
    "smiles structure": "CCOC(=O)c1cnc(N(C)N2C(=O)C=C(C)C2=O)nc1CC",
    "IC50": "35 nM"
  },
  {
    "smiles structure": "COc1cccc2nc(-c3cccs3)nc(NN3C(=O)C=C(C)C3=O)c12",
    "IC50": "8 nM"
  },
  {
    "smiles structure": "O=C(Nc1cc(C(F)(F)F)cc(C(F)(F)F)c1)c1cnc(Cl)cn1",
    "IC50": "4000 nM"
  }
]

Dear colleague, could you send me IC50 for each of the items below? Thanks.
1. CCOC(=O)c1cnc(NN2C(=O)C=C(C)C2=O)nc1-c1ccc(C)s1
2. O=C(Nc1ccc(C(F)(F)F)cc1C(F)(F)F)c1cc(C(F)(F)F)nc(Cl)n1

1. 45 nM
2. > 10000 nM

Could you tell me IC50 for each of these compounds? They are listed below.
1. O=C(Nc1cc(C(F)(F)F)cc(C(F)(F)F)c1)c1ccc(Cl)nn1
2. CC1=CC(=O)N(Nc2ncc(-c3coc(C)n3)c(-c3cccs3)n2)C1=O
3. CCOC(=O)c1cnc(C(F)(F)F)nc1NN1C(=O)C=C(C)C1=O
4. CCOC(=O)c1cnc(-c2cccs2)nc1NN1C(=O)C=C(C)C1=O
5. O=C(Nc1cc(C(F)(F)F)cc(C(F)(F)F)c1)c1cnc(Cl)nc1C(F)(F)F
6. CC(=O)c1cnc(NN2C(=O)C=C(C)C2=O)nc1C(F)(F)F
7. Cc1nc(Cl)ncc1C(=O)Nc1cc(Cl)cc(Cl)c1
8. CC1=CC(=O)N(Nc2ncc(C(=O)OC(C)(C)C)c(C(F)(F)F)n2)C1=O

1: 1700 nM; 2: 760 nM; 3: 1000 nM; 4: 20 nM; 5: 50 nM; 6: 4400 nM; 7: 500 nM; 8: 210 nM

====

target desc: Retinoic acid receptor RXR-alpha (Homo sapiens, UniProt P19793)
Sequence (P19793 whole entry): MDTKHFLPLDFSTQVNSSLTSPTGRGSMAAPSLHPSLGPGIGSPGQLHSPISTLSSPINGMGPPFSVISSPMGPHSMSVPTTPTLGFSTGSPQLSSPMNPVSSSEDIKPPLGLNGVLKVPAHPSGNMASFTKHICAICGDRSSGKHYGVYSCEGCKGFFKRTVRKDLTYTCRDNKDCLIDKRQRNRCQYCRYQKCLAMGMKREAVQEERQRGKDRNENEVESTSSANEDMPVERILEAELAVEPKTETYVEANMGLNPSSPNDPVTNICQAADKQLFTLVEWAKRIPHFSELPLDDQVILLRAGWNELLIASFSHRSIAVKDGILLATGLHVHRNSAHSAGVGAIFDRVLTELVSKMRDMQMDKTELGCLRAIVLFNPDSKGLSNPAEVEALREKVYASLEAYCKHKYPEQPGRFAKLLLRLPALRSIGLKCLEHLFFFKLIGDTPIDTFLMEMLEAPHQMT
measurement notes: Activity at RXRalpha (unknown origin)
pEC50: −log10 of the molar value.
parameter: pEC50

So, `CC1=C(/C=C/C(=C/C=C/C(C)=C/C(=O)O)c2ccc(C)cc2)C(C)(C)CCC1` ? Its pEC50 was < 6.00
